Test system: phosphorylation of Akt at Serine 473
test: pAkt AlphaScreen (U87 cell)
Type: cell-based
particulars: Homo sapiens, U-87 MG; U87 MG cells, pAkt Ser473; average
Each item that follows carries a reported IC50.

compound	output_unit	IC50
C[C@H]1CN(c2ccnc3ccc(-c4cnc(Cl)c(NS(C)(=O)=O)c4)cc23)C[C@H](C)O1 [Example 109]	µM	0.0214
COc1ncc(-c2ccc3nccc(N4CCOCC4)c3c2)cc1NS(C)(=O)=O [Example 119]	µM	0.0448
CS(=O)(=O)Nc1cc(-c2ccc3nccc(C4CCOCC4)c3c2)cnc1Cl [Example 114]	µM	0.0254
O=S(=O)(Nc1cc(-c2ccc3nccc(N4CCN(Cc5ccncc5)CC4)c3c2)cnc1Cl)c1ccc(F)cc1 [Example 89]	µM	0.0223
CCN(Cc1noc(C2CC2)n1)c1ccnc2ccc(-c3cnc(Cl)c(NS(C)(=O)=O)c3)cc12 [Example 77]	µM	1.93
CS(=O)(=O)Nc1cc(-c2ccc3nccc(-c4ccc(C(F)(F)F)nc4)c3c2)cnc1Cl [Example 112]	µM	0.0091
Cc1cc(-c2ccnc3ccc(-c4cnc(Cl)c(NS(C)(=O)=O)c4)cc23)ccn1 [Example 105]	µM	0.0085
COc1ncc(-c2ccc3nccc(-c4ccncc4)c3c2)cc1NS(C)(=O)=O [Example 120]	µM	0.0147
C[C@@H]1CN(c2ccnc3ccc(-c4cnc(Cl)c(NS(=O)(=O)c5ccc(F)cc5)c4)cc23)C[C@H](C)O1 [Example 96]	µM	0.0375
C[C@@H]1CN(c2ccnc3ccc(-c4cnc(Cl)c(NS(C)(=O)=O)c4)cc23)C[C@H](C)O1 [Example 103]	µM	0.0556
CS(=O)(=O)Nc1cc(-c2ccc3nccc(N4Cc5ccc(F)cc5C4)c3c2)cnc1Cl [Example 86]	µM	0.667
CN(C)S(=O)(=O)Nc1cc(-c2ccc3nccc(Cl)c3c2)cnc1Cl [Example 125]	µM	0.723
CN(C)S(=O)(=O)Nc1cc(-c2ccc3nccc(N4CCOCC4)c3c2)cnc1Cl [Example 122]	µM	0.0163
COc1ccc(-n2c(=O)cnc3ccc(-c4cnc(Cl)c(NS(=O)(=O)N(C)C)c4)cc32)cn1 [Example 132]	µM	0.0408
CC1(C)CN(c2ccnc3ccc(-c4cnc(Cl)c(NS(C)(=O)=O)c4)cc23)CCO1 [Example 90]	µM	0.0484
CS(=O)(=O)Nc1cc(-c2ccc3nccc(C4=CCOCC4)c3c2)cnc1Cl [Example 107]	µM	0.0198
O=S(=O)(Nc1cc(-c2ccc3nccc(OC4CCSC4)c3c2)cnc1Cl)c1ccc(F)cc1 (centres unmarked) [Example 108]	µM	0.306
CS(=O)(=O)Nc1cc(-c2ccc3ncc(N4CCOCC4)nc3c2)cnc1Cl [Example 92]	µM	0.084
CS(=O)(=O)Nc1cc(-c2ccc3nccc(NC4CCNCC4)c3c2)cnc1Cl [Example 88]	µM	6.84
O=S(=O)(Nc1cc(-c2ccc3nccc(-c4ccnc(Cl)c4)c3c2)cnc1Cl)c1ccc(F)cc1 [Example 94]	µM	0.0053
CN(C)S(=O)(=O)Nc1cc(-c2ccc3ncc(=O)n(-c4ccccc4)c3c2)cnc1Cl [Example 130]	µM	0.0087
COCC1CCCN1c1ccnc2ccc(-c3cnc(Cl)c(NS(C)(=O)=O)c3)cc12 (centres unmarked) [Example 81]	µM	2.71
C[C@@H]1CN(c2ccnc3ccc(-c4cnc(Cl)c(NS(C)(=O)=O)c4)cc23)C[C@@H](C)O1 [Example 110]	µM	0.0141

The values you see were collected from patent US8415376B2.
